Target: T1, cynomolgus (Macaca fascicularis) ST2L extracellular domain with C-terminal His6 tag (Macaca fascicularis (cynomolgus), UniProt Q01638 19-321 (human entry))
T1 construct: also called cyno ST2L-ECD; cynoST2L-ECD
T1 chain: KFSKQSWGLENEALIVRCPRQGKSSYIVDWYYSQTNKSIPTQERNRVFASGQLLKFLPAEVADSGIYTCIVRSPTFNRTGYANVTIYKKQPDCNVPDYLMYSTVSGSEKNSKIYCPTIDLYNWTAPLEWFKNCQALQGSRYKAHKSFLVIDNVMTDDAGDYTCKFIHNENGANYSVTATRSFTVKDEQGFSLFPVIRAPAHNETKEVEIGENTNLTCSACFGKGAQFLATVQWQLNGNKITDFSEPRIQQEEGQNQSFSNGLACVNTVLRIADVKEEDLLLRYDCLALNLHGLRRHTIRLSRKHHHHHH
Experiment: ProteOn SPR, mAb captured, ST2L-ECD in solution
pKd: −log10 of the molar value.
Outcome label depends on pKd relative to 10: at/above gives true (1), below gives false (0).

Given the entry STLM62 (antibody, human IgG2, V domains shown, Mouse hybridoma C2494 cloned into human IgG2 background (STLM62); also called C2494) VH: EVQLQQSVAELVRPGASVKLSCTASAFNIKDDYMHWVKQRPEQGLEWIGRIDPAIGNTEYAPKFQDKATMTADTSSNTAYLQLSSLTSEDTAVYYCALGDFYAMDYWGQGTSVTVSS VL: ETTVTQSPASLSVATGEKVTIRCITNTDIDDVIHWYQQKPGEPPKLLISEGNTLRPGVPSRFSSSGYGTDFVFTIENTLSEDVADYYCLQSDNMLTFGAGTKLELK , answer whether its pKd meets or surpasses 10.
true (1)
